Tested on: ACHN renal
Assay: NCI-60 one-dose screen, 48 h (100 = growth as untreated, 0 = no growth, -100 = all killed)
Conditions: 10 µM unless noted
This is part of a sample that, as a whole, favours compounds with a hit. Of some 83,000 tested, about 20% had one in any assay.
# if measured growth < -70%: criterion met  # else: criterion not met

Reference set (5 entries):
{"compound": "O=C(/C=C/c1cccc(OCc2ccc(F)cc2)c1)c1nc2ccccc2[nH]1", "label": "criterion not met"}
{"compound": "Cc1occc1C(=O)NN1C(=O)/C(=C/C=C/c2ccc([N+](=O)[O-])o2)SC1=S", "label": "criterion met"}
{"compound": "CN1CCc2c(sc3ncnc(N/N=C/c4ccc(Cl)cc4Cl)c23)C1", "label": "criterion not met"}
{"compound": "c1ccc(-c2csc(Nc3cccc(Nc4nc(-c5ccccc5)cs4)c3)n2)cc1", "label": "criterion not met"}
{"compound": "Cc1ncsc1-c1ccc(CNC(=O)[C@@H]2C[C@@H](O)CN2C(=O)[C@@H](NC(=O)C2(F)CC2)C(C)(C)C)c(OCCOCCOCCOCCOc2nc(Nc3cc(S(C)(=O)=O)ccc3N[C@@H](c3cccc4c3OC(F)(F)O4)c3ncccc3Cl)nc(N3CCNCC3)n2)c1", "label": "criterion not met"}

Q) Please check: growth for C=C1CC[C@@H]2[C@]3(C)COC(c4cn[nH]c4-c4cccc(Cl)c4)O[C@@H]3CC[C@@]2(C)[C@@H]1C/C=C1/C(=O)OCC1O (stereo partly specified) , strictly under -70% or not?
A) criterion met

Q) Here's an entry: CC(=O)OC[C@@]1(C)C2CC[C@]3(C)C(CC=C4C5CC(C)(C)CC[C@]5(C(=O)Nc5ccc(Br)cc5)CC[C@]43C)[C@@]2(C)C[C@@H](OC(C)=O)[C@@H]1OC(C)=O (stereo partly specified) . Is its growth below -70%?
A) criterion not met

Q) Consider the compound "O=c1oc2ccccc2cc1-c1csc(N=Nc2c(O)[nH]c3ccc(Cl)cc23)n1" . Is its growth strictly less than -70%?
A) criterion not met

Q) Record "CN1CCN(Cc2ccc(C(=O)Nc3cccc(C#Cc4cccc5[nH]nc(N)c45)c3)cc2C(F)(F)F)CC1" : is its growth strictly below -70%?
A) criterion met

====

Exercise: for every item that follows, state its recorded growth.
System: SN12C renal
Test: NCI-60 one-dose screen, 48 h (100 = growth as untreated, 0 = no growth, -100 = all killed)
Details: 10 µM unless noted
About 83,000 compounds went through this panel and 20% of them were active in at least one assay; those are over-represented in the sample as a whole.
Answers are plain numbers, in %.

Observe how each entry below is paired with its result.
{"compound": "COc1ccc2[nH]cc(-c3cc(N)n4nc(-c5cn(C)c6ccccc56)cc4n3)c2c1", "unit_of_measurement": "%", "experimental_result": -73.2}
{"compound": "CC1(C)CC[C@]2(C(=O)O)CC[C@]3(C)C(=CCC4[C@@]5(C)C[C@@H](O)[C@@H]6OC(c7ccc(F)cc7)OC[C@@]6(C)C5CC[C@]43C)C2C1 (stereo partly drawn)", "unit_of_measurement": "%", "experimental_result": 31.8}
{"compound": "O=C(Cn1c(/C=C/c2ccccc2)nc2ccccc2c1=O)Nc1ccccc1", "unit_of_measurement": "%", "experimental_result": 31}
{"compound": "C=C1CC[C@@H]2[C@]3(C)COC(c4cn(-c5ccccc5)nc4-c4ccccc4)O[C@@H]3CC[C@@]2(C)[C@@H]1C/C=C1/C(=O)OC[C@H]1O (stereo partly drawn)", "unit_of_measurement": "%", "experimental_result": -67.1}
{"compound": "C#CCOc1ccc(/C=N/Nc2nc(-c3cc4cc(Br)ccc4oc3=O)cs2)cc1OC", "unit_of_measurement": "%", "experimental_result": 72.8}
{"compound": "COc1ccc(C(=O)/C=C/c2ccc(OC)c(OCc3ccccc3)c2)cc1OC", "unit_of_measurement": "%", "experimental_result": 7.92}

Give growth for each of the items listed below.
1. NS(=O)(=O)c1ccc(CCNC(=O)CSc2ccc(-c3ccc(Br)cc3)nn2)cc1
2. COc1cc(C2CC(c3cc(OC)c(OC)c(OC)c3)=NN2c2ccccc2)ccc1OCc1ccc(C)cc1 (stereo not drawn)

A)
1. 80.7
2. 95.1
